System name: full-length human Mineralocorticoid Receptor (MR) (Homo sapiens, UniProt P08235)
Sequence (P08235 whole entry): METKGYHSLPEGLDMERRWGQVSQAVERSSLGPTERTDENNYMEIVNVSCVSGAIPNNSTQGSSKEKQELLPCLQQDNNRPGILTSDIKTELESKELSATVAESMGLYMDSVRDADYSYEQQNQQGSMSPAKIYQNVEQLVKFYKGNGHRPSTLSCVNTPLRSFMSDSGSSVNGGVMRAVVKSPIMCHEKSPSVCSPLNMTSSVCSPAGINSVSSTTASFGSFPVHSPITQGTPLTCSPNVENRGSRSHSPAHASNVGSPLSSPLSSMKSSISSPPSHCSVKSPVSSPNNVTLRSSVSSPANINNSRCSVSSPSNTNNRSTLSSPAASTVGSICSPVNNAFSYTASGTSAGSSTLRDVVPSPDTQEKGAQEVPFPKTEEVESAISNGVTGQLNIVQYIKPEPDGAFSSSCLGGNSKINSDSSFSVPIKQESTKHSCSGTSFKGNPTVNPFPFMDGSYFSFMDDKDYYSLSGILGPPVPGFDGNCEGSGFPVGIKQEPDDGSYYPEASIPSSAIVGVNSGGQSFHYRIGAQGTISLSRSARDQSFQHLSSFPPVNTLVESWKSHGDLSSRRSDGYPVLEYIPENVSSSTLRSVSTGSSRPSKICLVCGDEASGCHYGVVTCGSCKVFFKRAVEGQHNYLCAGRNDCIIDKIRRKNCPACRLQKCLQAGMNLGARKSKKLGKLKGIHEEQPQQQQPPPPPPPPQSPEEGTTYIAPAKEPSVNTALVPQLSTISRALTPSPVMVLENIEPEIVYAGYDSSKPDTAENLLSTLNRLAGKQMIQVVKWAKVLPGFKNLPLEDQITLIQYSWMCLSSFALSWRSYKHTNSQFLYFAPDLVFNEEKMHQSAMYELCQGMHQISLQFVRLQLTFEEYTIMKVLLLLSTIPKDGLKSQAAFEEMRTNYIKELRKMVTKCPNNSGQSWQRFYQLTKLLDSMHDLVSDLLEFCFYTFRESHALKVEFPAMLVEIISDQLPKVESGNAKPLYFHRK
Experiment summary: human MR NH Pro assay (PathHunter Protein:Protein interaction assay), MR antagonist activity
Condition context: PathHunter CHO-K1 cells overexpressing human MR; aldosterone 0.3 nM to about 1 nM; 6 hours at 37° C.; luminescence; read-out: IP (rating); IP is the inflection point for a given dose-response titration curve
Reported IC50 by item:

Consider the reported IC50 for these molecules:
[
  {
    "Molecule": "N#CCCC(c1ccc(Cl)cc1F)c1nn(CC#N)c2ccccc12 (stereo not shown) [Example 17E]",
    "IC50": "500 to 6000 nM"
  },
  {
    "Molecule": "CCC(c1ccc(Cl)cc1)(c1n[nH]c2c(NS(C)(=O)=O)cccc12)C(C)O (single isomer, unassigned; diastereoisomer b) [Compound 24B]",
    "IC50": "< 100 nM"
  }
]

Item CCC(C#N)(c1ccc(Cl)cc1)c1n[nH]c2c([N+](=O)[O-])cccc12 (stereo not shown) was tested on full-length human Mineralocorticoid Receptor (MR) (Homo sapiens, UniProt P08235); the reported IC50 is 500 to 6000 nM

Item CCC(c1ccc(Cl)cc1)(c1n[nH]c2c(NS(C)(=O)=O)cccc12)C(C)O (single isomer, unassigned; diastereoisomer a) [Compound 24A] was tested on full-length human Mineralocorticoid Receptor (MR) (Homo sapiens, UniProt P08235); the reported IC50 is < 100 nM

Item CC(C)(O)CCC(c1ccc(Cl)cc1F)c1n[nH]c2c(NS(C)(=O)=O)cccc12 (stereo not shown) was tested on full-length human Mineralocorticoid Receptor (MR) (Homo sapiens, UniProt P08235); the reported IC50 is 500 to 6000 nM

Item CCC(C#N)(c1ccc(Cl)cc1)c1n[nH]c2c(NS(C)(=O)=O)cccc12 (stereo not shown) was tested on full-length human Mineralocorticoid Receptor (MR) (Homo sapiens, UniProt P08235); the reported IC50 is 500 to 6000 nM

Item COC(=O)CCn1nc(C(CCC#N)c2ccc(Cl)cc2F)c2ccccc21 (stereo not shown) [Example 17C] was tested on full-length human Mineralocorticoid Receptor (MR) (Homo sapiens, UniProt P08235); the reported IC50 is 500 to 6000 nM

All figures here come from patent US9487506B2.
